- Test system: MC3T3-E1 cells
- Assay Explanation: Cell death, propidium iodide (PI) staining
- Type: cell-based, mouse
- Particulars: MC3T3-E1, single ligand

| Compound | number of PI-stained cells (cell death) |
| --- | --- |
| CC1=C(/C=C/C(C)=C/C=C/C(C)=C/C(=O)O)C(C)(C)CCC1 [all-trans RA, all-trans retinoic acid] | stimulate cell death |
| C/C(=C\c1ccc(C(=O)O)cc1)c1ccc2c(c1)C(C)(C)CCC2(C)C [TTNPB] | stimulate cell death |
| CC1=C(/C=C/C(C)=C\C=C\C(C)=C\C(=O)O)C(C)(C)CCC1 [9-cis RA, 9-cis retinoic acid] | stimulate cell death |
